- Test system: human red blood cells (hRBCs)
- procedure-text: Hemolysis assay
- Format: cell-based
- measurement-setup: peptide concentration causing 50% hemolysis; 4% (v/v) hRBCs in PBS, 1 h, 37 °C, absorbance 540 nm, triplicate
Where a SMILES comes first, the peptide text is derived from it. Bridges are numbered along the chain shown (N, C = ends). The star is where a group is joined. Palmitoyl = CCCCCCCCCCCCCCCC(=O)*
Please note: HC50 exactly at 90 µg/mL is not fulfilled. Only values below 90 µg/mL get fulfilled.

Solved cases (5 shown):
compound	assigned-label
CCCCCCCCCCCCCCCC(=O)N[C@@H](CCCNC(=N)N)C(=O)N[C@@H](CCCCN)C(=O)N[C@@H](CCCCN)C(=O)N[C@@H](CCCCN)C(N)=O [L3, C16-RKKK-NH2] (Palmitoyl-RKKK-NH2)	fulfilled
CCCCCCCCCCCCCCCC(=O)N[C@@H](CCCCN)C(=O)N[C@@H](CCCNC(=N)N)C(=O)N[C@@H](CCCCN)C(=O)N[C@@H](CCCCN)C(N)=O [L4, C16-KRKK-NH2] (Palmitoyl-KRKK-NH2)	fulfilled
CCCCCCCCCCCCCCCC(=O)N[C@@H](CCCCN)C(=O)N[C@@H](CCCCN)C(=O)N[C@@H](CCCCN)C(=O)N[C@@H](CCCCN)C(N)=O [L2, C16-KKKK-NH2] (Palmitoyl-KKKK-NH2)	not fulfilled
CCCCCCCCCCCCCCCC(=O)N[C@H]1CSSC[C@@H](C(N)=O)NC(=O)[C@H](CCCCN)NC(=O)[C@H](CCCCN)NC(=O)[C@H](CCCCN)NC1=O [C1, C16-CKKKC-NH2] (Palmitoyl-CKKKC-NH2; disulfide 1-5)	fulfilled
CCCCCCCCCCCCCCCC(=O)N[C@H]1CSSC[C@@H](C(N)=O)NC(=O)[C@H](CCCCN)NC(=O)[C@H](CCCCN)NC(=O)[C@H](CCCCN)NC(=O)[C@H](CCCNC(=N)N)NC1=O [C3, C16-CRKKKC-NH2] (Palmitoyl-CRKKKC-NH2; disulfide 1-6)	fulfilled

Inquiry: Is 90 µg/mL strictly greater than the compound's reported HC50? compound: CCCCCCCCCCCCCCCC(=O)N[C@@H](CCCCN)C(=O)N[C@@H](CCCCN)C(=O)N[C@@H](CCCNC(=N)N)C(=O)N[C@@H](CCCCN)C(N)=O [L5, C16-KKRK-NH2] (Palmitoyl-KKRK-NH2)
Reply text: not fulfilled

----------
Reported MBEC C. albicans by item:
- Tested on: Candida albicans ATCC 10231
- Assay type: cell-based
- measurement-setup: ATCC 10231, 24 h
Where a SMILES comes first, the peptide text is derived from it. Bridges are numbered along the chain shown (N, C = ends). The star is where a group is joined. Palmitoyl = CCCCCCCCCCCCCCCC(=O)*
Just the number please, in µg/mL, no unit attached.

compound	MBEC C. albicans (µg/mL)
CCCCCCCCCCCCCCCC(=O)N[C@H]1CSSC[C@@H](C(N)=O)NC(=O)[C@H](CCCCN)NC(=O)[C@H](CCCCN)NC(=O)[C@H](CCCCN)NC(=O)[C@H](CCCNC(=N)N)NC1=O [C3, C16-CRKKKC-NH2] (Palmitoyl-CRKKKC-NH2; disulfide 1-6)	32

So, CCCCCCCCCCCCCCCC(=O)N[C@H]1CSSC[C@@H](C(N)=O)NC(=O)[C@H](CCCCN)NC(=O)[C@H](CCCCN)NC(=O)[C@H](CCCCN)NC1=O [C1, C16-CKKKC-NH2] (Palmitoyl-CKKKC-NH2; disulfide 1-5) ? Its MBEC C. albicans was 256
